- EXPERIMENTAL_TARGET: FLT3 (Homo sapiens)
- Construct: Recombinant proteins containing the FLT3 kinase domain were purchased from Carna biosciences (Japan); purchased Carna biosciences (Japan)
- TEST_NAME: In vitro FLT3 kinase assay (HTRF)
- Type: biochemical
- TEST_SETTINGS: Table 1, mean ± S.D.; read-out: IC50 FLT3
PROPERTY: IC50 (nM)
Number only, in nM; omit the unit.

Task: Which measured IC50 value corresponds to `COC(=O)c1ccc2c(c1)/C(=C1/Nc3ccccc3/C1=N\OCCN1CCNCC1)C(=O)N2.Cl.Cl` ?
Result: 3

----------
Let's look at some compounds and their measured pIC50.
- EXPERIMENTAL_TARGET: FLT3 (Homo sapiens)
- Construct: Recombinant proteins containing the FLT3 kinase domain were purchased from Carna biosciences (Japan); purchased Carna biosciences (Japan)
- Sequence (P36888 610-943 limits assumed): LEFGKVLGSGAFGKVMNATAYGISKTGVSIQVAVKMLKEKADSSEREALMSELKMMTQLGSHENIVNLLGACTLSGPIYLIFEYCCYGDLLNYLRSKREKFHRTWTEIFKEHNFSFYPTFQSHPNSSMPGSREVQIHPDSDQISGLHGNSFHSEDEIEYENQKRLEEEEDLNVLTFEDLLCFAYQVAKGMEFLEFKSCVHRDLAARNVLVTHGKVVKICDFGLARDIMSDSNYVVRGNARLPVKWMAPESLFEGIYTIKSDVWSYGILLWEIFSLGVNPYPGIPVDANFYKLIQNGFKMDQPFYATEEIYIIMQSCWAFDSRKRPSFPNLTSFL
- TEST_NAME: In vitro FLT3 kinase assay (HTRF)
- Type: biochemical
- TEST_SETTINGS: recombinant FLT3, HTRF; read-out: IC50 FLT3 kinase activity
In simple prose, pIC50 is minus the logarithm base ten of a concentration in moles per litre.

Use the examples below as a reference point.
Task: Which measured pIC50 value corresponds to `COC(=O)c1ccc2c(c1)/C(=C1/Nc3ccccc3/C1=N\OCCBr)C(=O)N2` ?
Result: 7.72

Task: Which measured pIC50 value corresponds to `O=C1Nc2ccc(C(=O)O)cc2/C1=C1/Nc2ccccc2/C1=N\OCCBr` ?
Result: 7.89

Task: Which measured pIC50 value corresponds to `COC(=O)c1ccc2c(c1)/C(=C1/Nc3ccccc3/C1=N\OCCN1CCN(C)CC1)C(=O)N2` ?
Result: 7.97

Others:
Task: Which measured pIC50 value corresponds to `COC(=O)c1ccc2c(c1)/C(=C1/Nc3ccccc3/C1=N\OCCN)C(=O)N2` ?
Result: 8.35

Task: Which measured pIC50 value corresponds to `NCCO/N=C1/C(=C2/C(=O)Nc3ccc(C(=O)O)cc32)Nc2ccccc21` ?
Result: 8.48

Task: Which measured pIC50 value corresponds to `CN1CCN(CCO/N=C2/C(=C3/C(=O)Nc4ccc(C(=O)O)cc43)Nc3ccccc32)CC1` ?
Result: 8.48

Task: Which measured pIC50 value corresponds to `COC(=O)c1ccc2c(c1)/C(=C1/Nc3ccccc3/C1=N\OCCN1CCNCC1)C(=O)N2.Cl.Cl` ?
Result: 8.52

Task: Which measured pIC50 value corresponds to `O=C1Nc2ccc(C(=O)O)cc2/C1=C1/Nc2ccccc2/C1=N\OCCN1CCOCC1` ?
Result: 8.12

Task: Which measured pIC50 value corresponds to `COC(=O)c1ccc2c(c1)/C(=C1/Nc3ccccc3/C1=N\OCCN1CCOCC1)C(=O)N2` ?
Result: 6.60
